system.name: Jak3 (Homo sapiens)
Sequence (P52333 508-1124): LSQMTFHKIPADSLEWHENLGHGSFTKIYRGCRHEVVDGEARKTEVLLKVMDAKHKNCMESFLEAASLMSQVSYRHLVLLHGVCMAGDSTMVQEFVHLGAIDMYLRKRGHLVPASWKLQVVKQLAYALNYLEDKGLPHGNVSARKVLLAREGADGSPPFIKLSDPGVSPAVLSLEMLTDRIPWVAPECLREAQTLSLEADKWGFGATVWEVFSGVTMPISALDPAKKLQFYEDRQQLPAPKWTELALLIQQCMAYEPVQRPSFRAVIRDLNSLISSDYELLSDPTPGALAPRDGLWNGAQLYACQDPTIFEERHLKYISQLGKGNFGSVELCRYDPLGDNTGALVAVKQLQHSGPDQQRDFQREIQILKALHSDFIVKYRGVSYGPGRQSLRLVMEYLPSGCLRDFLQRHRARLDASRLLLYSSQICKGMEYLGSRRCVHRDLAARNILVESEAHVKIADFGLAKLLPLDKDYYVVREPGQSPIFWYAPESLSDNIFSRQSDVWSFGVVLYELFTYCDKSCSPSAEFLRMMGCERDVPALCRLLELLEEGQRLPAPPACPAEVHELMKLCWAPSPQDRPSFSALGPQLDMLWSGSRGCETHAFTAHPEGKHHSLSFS
pIC50: −log10 of the molar value.
Record form. Attribute: pIC50. Fill in for each entry.

Answered cases to consult:
Oc1ccc(-c2nc3cnc(-n4cnc5ccc(F)cc54)nc3n2C2CCOCC2)cc1 :: 6.00 to 7.00
N#Cc1ccc2ncn(-c3ncc4nc(-c5cncnc5)n(C5CCOCC5)c4n3)c2c1 :: > 7.00
COc1ccc(-c2nc3cnc(-n4cnc5ccc(C#N)cc54)nc3n2C2CCOCC2)cc1 :: 6.00 to 7.00

Please report pIC50 for every entry that follows.
1. Fc1ccc2ncn(-c3ncc4nc(-c5cccnc5)n(C5CCOCC5)c4n3)c2c1
2. Fc1ccc2ncn(-c3ncc4nc(-c5ccncn5)n(C5CCOCC5)c4n3)c2c1
3. N#Cc1ccc2ncn(-c3ncc4nc(Nc5cccnc5)n([C@@H]5CCOc6ccccc65)c4n3)c2c1
4. Fc1cccc(-c2nc3cnc(-n4cnc5ccc(F)cc54)nc3n2C2CCOCC2)c1

1. > 7.00
2. > 7.00
3. > 7.00
4. 6.00 to 7.00

Identify measured pIC50 associated with Oc1cccc(-c2nc3cnc(-n4cnc5ccc(Cl)cc54)nc3n2C2CCOCC2)c1 > 7.00

----------
system.name: UniProtKB P52333
Record form. Attribute: IC50. Fill in for each entry.

Answered cases to consult:
COc1ccc(-c2nc3cnc(-n4cnc5ccc(F)cc54)nc3n2C2CCOCC2)cn1 [Example 63] :: < 100 nM
N#Cc1ccc2ncn(-c3ncc4nc(-c5cccc(O)c5)n(C5CCOCC5)c4n3)c2c1 [Example 8] :: < 100 nM
Cc1cccc(-c2nc3cnc(-n4cnc5ccc(C#N)cc54)nc3n2C2CCOCC2)c1 [Example 12] :: 100 to 1000 nM

Please report IC50 for every entry that follows.
1. CO[C@H]1CC[C@H](n2c(C)nc3cnc(-n4cnc5ccc(C#N)cc54)nc32)CC1 [Example 23]
2. Clc1ccc2ncn(-c3ncc4nc(-c5cncnc5)n(C5CCOCC5)c4n3)c2c1 [Example 65]
3. Fc1cccc2c1COCC2n1c(-c2ccccc2)nc2cnc(-n3cnc4ccccc43)nc21 (stereo not drawn) [Example 86]

1: 100 to 1000 nM; 2: < 100 nM; 3: > 1000 nM

----------
system.name: Jak3 (Homo sapiens)
Sequence (P52333 508-1124): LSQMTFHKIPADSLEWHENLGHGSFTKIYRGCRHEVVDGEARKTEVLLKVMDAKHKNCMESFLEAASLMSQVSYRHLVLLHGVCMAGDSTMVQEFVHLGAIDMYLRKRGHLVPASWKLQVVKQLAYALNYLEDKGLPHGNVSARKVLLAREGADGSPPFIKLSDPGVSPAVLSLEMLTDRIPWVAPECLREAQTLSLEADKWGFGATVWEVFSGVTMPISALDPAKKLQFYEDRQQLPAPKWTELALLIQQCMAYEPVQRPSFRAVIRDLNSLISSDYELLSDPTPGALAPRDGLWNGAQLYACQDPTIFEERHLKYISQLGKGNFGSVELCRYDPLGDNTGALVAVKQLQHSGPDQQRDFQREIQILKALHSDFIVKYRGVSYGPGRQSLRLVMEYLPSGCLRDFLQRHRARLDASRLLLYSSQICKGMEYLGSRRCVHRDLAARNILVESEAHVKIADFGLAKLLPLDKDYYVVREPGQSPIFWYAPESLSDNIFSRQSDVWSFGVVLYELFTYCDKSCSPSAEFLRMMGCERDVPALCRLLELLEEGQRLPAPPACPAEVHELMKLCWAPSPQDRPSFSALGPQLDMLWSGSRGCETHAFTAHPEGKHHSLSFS
pIC50: −log10 of the molar value.
readout.name: pIC50

Answered cases to consult:
CC(C)Sc1nccc(-c2nc3cnc(-n4cnc5ccc(C#N)cc54)nc3n2[C@@H]2CCOc3c(F)ccc(F)c32)n1 :: 6.00 to 7.00
Fc1ccc2ncn(-c3ncc4nc(-c5ccccn5)n(C5CCOCC5)c4n3)c2c1 :: 6.00 to 7.00
Fc1ccc(-c2nc3cnc(-n4cnc5ccc(F)cc54)nc3n2C2CCOCC2)nc1 :: 6.00 to 7.00

Please report pIC50 for every entry that follows.
1. N#Cc1ccc2ncn(-c3ncc4nc(Nc5ccccc5F)n(C5CCOCC5)c4n3)c2c1
2. N#Cc1ccc2ncn(-c3ncc4nc(-c5ccccc5)n(C5CCOCC5)c4n3)c2c1
3. Cc1ccc([C@@H](C)n2c(C)nc3cnc(-n4cnc5ccc(C#N)cc54)nc32)o1
4. CO[C@H]1CC[C@H](n2c(C)nc3cnc(-n4cnc5ccc(OC(F)(F)F)cc54)nc32)CC1
5. Fc1ccc2ncn(C3N=c4c(nc(-c5ccnc6ccccc56)n4C4CCOCC4)=CN3)c2c1 (centres unmarked)
6. COCCCn1c(C)nc2cnc(-n3cnc4ccccc43)nc21
7. N#Cc1ccc2ncn(-c3ncc4nc(NCCN5CCCCC5)n(C5CCOCC5)c4n3)c2c1
8. Fc1ccc2ncn(-c3ncc4nc(-c5ccc(Cl)nc5)n(C5CCOCC5)c4n3)c2c1

1: > 7.00; 2: > 7.00; 3: 6.00 to 7.00; 4: 6.00 to 7.00; 5: < 6.00; 6: < 6.00; 7: > 7.00; 8: > 7.00

----------
system.name: Jak3 (Homo sapiens)
pIC50: −log10 of the molar value.
readout.name: pIC50

Answered cases to consult:
Fc1ccc2ncn(-c3ncc4nc(-c5cncnc5)n(C5CCOCC5)c4n3)c2c1 :: > 7.00
Cc1nc2cnc(-n3cnc4ccc(C#N)cc43)nc2n1C1CCOCC1 :: > 7.00

Report measured pIC50 on Jak3 (Homo sapiens); entry: Fc1ccc2ncn(-c3ncc4nc(-c5nccs5)n(C5CCOCC5)c4n3)c2c1 6.00 to 7.00
